# TARGET OR SYSTEM: Sodium-dependent serotonin transporter (Rattus norvegicus, UniProt P31652)
# Sequence (P31652 whole entry): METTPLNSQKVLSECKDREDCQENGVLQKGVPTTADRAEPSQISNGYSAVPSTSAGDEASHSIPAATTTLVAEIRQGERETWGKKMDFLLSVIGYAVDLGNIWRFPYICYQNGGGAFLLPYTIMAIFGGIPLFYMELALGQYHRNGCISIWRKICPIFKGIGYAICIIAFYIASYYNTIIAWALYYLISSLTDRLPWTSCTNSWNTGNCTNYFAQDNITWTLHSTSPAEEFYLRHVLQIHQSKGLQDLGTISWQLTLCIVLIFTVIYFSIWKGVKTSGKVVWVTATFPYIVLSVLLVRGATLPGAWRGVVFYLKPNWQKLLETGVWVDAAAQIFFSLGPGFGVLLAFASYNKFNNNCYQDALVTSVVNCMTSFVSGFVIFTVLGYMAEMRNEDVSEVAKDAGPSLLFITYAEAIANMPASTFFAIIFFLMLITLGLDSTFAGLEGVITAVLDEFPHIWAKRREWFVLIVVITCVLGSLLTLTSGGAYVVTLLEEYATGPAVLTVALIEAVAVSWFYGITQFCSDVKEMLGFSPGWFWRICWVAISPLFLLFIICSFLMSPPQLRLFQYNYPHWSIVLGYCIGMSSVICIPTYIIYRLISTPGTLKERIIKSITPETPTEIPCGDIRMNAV
# METHOD SUMMARY: Inhibition of high affinity uptake by the serotonin transporter (5-HT) from rat synaptosomal nerve endings by using [3H]5-HT as radioligand

MOLECULE | Ki, nM
COC(=O)C1CN(C)CCC1c1ccc(Cl)cc1 (stereo not drawn) | 8490
COC(=O)CSCC1CNCCC1c1ccc(Cl)cc1 (stereo not drawn) | 13
CN1CCC(c2ccc(Cl)cc2)C(C[S+]([O-])CC(=O)N2CCCCC2)C1 (stereo not drawn) | 825
CN1CCC(c2ccc(Cl)cc2)C(CSCCO)C1 (stereo not drawn) | 158
Cc1noc(CSCC2CN(C)CCC2c2ccc(Cl)cc2)n1 (stereo not drawn) | 221
CNC(=O)CSCC1CN(C)CCC1c1ccc(Cl)cc1 (stereo not drawn) | 110
CNC(=O)C[S+]([O-])CC1CN(C)CCC1c1ccc(Cl)cc1 (stereo not drawn) | 2030
CN1CCC(c2ccc(Cl)cc2)C(C[S+]([O-])CCOC(=O)c2ccccc2)C1 (stereo not drawn) | 199
CC(C)NC(=O)C[S+]([O-])CC1CN(C)CCC1c1ccc(Cl)cc1 (stereo not drawn) | 473
CN1CCC(c2ccc(Cl)cc2)C(CSCCOC(=O)c2ccccc2)C1 (stereo not drawn) | 6.7
CC(C)NC(=O)CSCC1CN(C)CCC1c1ccc(Cl)cc1 (stereo not drawn) | 1.1
NC(=O)CSCC1CNCCC1c1ccc(Cl)cc1 (stereo not drawn) | 170
COC(=O)CSCC1CN(C)CCC1c1ccc(Cl)cc1 (stereo not drawn) | 208
CN1CCC(c2ccc(Cl)cc2)C(CI)C1 (stereo not drawn) | 238
CN1CCC(c2ccc(Cl)cc2)C(C[S+]([O-])CC(=O)N(C)C)C1 (stereo not drawn) | 924
CN1CCC(c2ccc(Cl)cc2)C(CSCC(=O)N(C)C)C1 (stereo not drawn) | 88
CN1CCC(c2ccc(Cl)cc2)C(CSCC(N)=O)C1 (stereo not drawn) | 557
CN1CCC(c2ccc(Cl)cc2)C(C[S+]([O-])CCO)C1 (stereo not drawn) | 2180
NC(=O)C[S+]([O-])CC1CNCCC1c1ccc(Cl)cc1 (stereo not drawn) | 775
COCC[S+]([O-])CC1CN(C)CCC1c1ccc(Cl)cc1 (stereo not drawn) | 469
CN1CCC(c2ccc(Cl)cc2)C(CSCC(=O)N2CCCCC2)C1 (stereo not drawn) | 4.5
CN1CCC(c2ccc(Cl)cc2)C(C[S+]([O-])CC(=O)NO)C1 (stereo not drawn) | 1800
Cc1noc(C[S+]([O-])CC2CN(C)CCC2c2ccc(Cl)cc2)n1 (stereo not drawn) | 1080
